Property: pEC50; scope: individual compounds
Target: human APJ receptor (Homo sapiens (Human), UniProt P35414)
Sequence (P35414 whole entry): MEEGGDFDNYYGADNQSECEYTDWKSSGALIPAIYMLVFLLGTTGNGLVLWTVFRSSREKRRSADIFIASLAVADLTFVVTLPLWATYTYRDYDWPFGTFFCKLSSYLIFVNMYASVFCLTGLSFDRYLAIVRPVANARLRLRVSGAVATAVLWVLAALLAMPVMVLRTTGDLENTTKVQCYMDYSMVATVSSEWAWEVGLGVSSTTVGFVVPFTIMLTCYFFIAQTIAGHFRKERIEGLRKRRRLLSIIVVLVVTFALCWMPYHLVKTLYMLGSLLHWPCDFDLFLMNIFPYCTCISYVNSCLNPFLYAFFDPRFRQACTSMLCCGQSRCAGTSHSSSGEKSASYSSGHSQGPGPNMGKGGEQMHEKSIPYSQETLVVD
Test: biochemical
Type: biochemical
Details: [35S]GTPγS binding, membranes from CHO cells stably expressing human APJ receptor; read-out: Activity hAPJ SPA EC50 IP
pEC50: −log10 of the molar value.

Compound	pEC50
COc1ccc(Cc2nnc(NS(=O)(=O)[C@@H](C)[C@H](OC)c3ncc(C)cn3)n2-c2c(OC)cccc2OC)cc1 [Example 49.0]	6.77
COc1cccc(OC)c1-n1c(Cc2ccccc2)nnc1NS(=O)(=O)[C@@H](C)[C@H](C)c1ncc(Cl)cn1 [Example 14.0]	8.34
COc1cccc(OC)c1-n1c(NS(=O)(=O)[C@@H](C)[C@H](C)c2ncc(C)cn2)nnc1-c1cccc2c1CC(=O)N2 [Example 16.0]	6.92
COc1ncnc(OC)c1-n1c(NS(=O)(=O)[C@@H](C)[C@H](OC)c2ncc(Cl)cn2)nnc1C(C)C [Example 133.0]	7.66
